Provenance of the data: the supplement of paper PMC8728848

# target-desc: Glc(b1-6)Glc
# procedure-summary: glycan array binding signal (z-score within array); higher = stronger binding
# setup-conditions: glycan notation: IUPAC condensed, linker removed
The sample as a whole holds a higher share of the strongest signals than the screen did.
reported-endpoint: glycan array binding signal (z-score)

Input: # query: glycan array binding signal (z-score) of entry HFR-3 (Triticum aestivum) (protein) MKGLLLCALALAFAAVTTHAQLQSCPTRCGKQADGMECPNNLCCSKDGYCGLGVDYCSAGAGCQSGACYDNKICGAQANGTLCRNNHCCSSGGRCGYGREYCSNGCQGGPCWADLKCGHLDNGKLCPNNLCCSQYGYCGLGPEFCGTGCQNGACSTDKPCGNKANGAPCTNNYCCSQYGSCGLGKDYCGTGCQNGACN
Output: -0.1
